- Target or test system: T1, human CD33 (human, UniProt P20138 18-259, limits assumed)
- T1 construct: Human CD33 immobilized on the BLI sensor tip or the BIAcore C1 chip; also called Siglec-3
- T1 sequence (P20138 18-259 limits assumed): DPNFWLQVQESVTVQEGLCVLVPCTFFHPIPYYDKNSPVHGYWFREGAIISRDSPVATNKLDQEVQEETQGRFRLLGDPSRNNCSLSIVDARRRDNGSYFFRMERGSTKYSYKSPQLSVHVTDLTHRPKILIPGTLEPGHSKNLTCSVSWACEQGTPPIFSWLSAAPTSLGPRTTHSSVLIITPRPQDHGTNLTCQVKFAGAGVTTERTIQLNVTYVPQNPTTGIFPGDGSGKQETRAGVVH
- Test method notes: SPR (BIAcore), Fab over CD33 on C1 chip
Outcome measure: koff (s⁻¹)
Record the value in s⁻¹, omitting the unit from your answer.

Input: Supply reported koff belonging to this binder: AB-64.2 (antibody, V domains shown) VH: QVQLVQSGAEVKKPGASVKISCKASGYTFTDYNLHWVRQAPGQGLEWIGFIYPSNGITGYAQKFQGRATLTVDNSTSTAYMELSSLRSEDTAVYYCARSTVDYFDYWGQGTLLTVSS VL: DIVLTQSPDSLAVSLGERATINCRVSQDVSTSTYSYMHWYQQKPGQPPKLLIKYASNLESGVPDRFSGSGSGTDFTLTISSLQAEDVAVYYCQHSWEIPLTFGQGTKLEIK
Output: 0.000137
